- assay-protocol: Clearance in Beagle dog at 1 mg/kg, iv and 5 mg/kg, po
- Assay type: ADME, organism-based, Canis lupus familiaris
- condition-label: in vivo
reported-property: clearance (mL/min/kg)
Numeric only. Scale: mL/min/kg

Lab note: O=C(Nc1cccnc1)N1CCN(Cc2cccc(Oc3ccc(Cl)cc3)c2)CC1 gave clearance of 38.3

---

- test-target: Fatty-acid amide hydrolase 1 (Rattus norvegicus, UniProt P97612)
- Sequence (P97612 whole entry): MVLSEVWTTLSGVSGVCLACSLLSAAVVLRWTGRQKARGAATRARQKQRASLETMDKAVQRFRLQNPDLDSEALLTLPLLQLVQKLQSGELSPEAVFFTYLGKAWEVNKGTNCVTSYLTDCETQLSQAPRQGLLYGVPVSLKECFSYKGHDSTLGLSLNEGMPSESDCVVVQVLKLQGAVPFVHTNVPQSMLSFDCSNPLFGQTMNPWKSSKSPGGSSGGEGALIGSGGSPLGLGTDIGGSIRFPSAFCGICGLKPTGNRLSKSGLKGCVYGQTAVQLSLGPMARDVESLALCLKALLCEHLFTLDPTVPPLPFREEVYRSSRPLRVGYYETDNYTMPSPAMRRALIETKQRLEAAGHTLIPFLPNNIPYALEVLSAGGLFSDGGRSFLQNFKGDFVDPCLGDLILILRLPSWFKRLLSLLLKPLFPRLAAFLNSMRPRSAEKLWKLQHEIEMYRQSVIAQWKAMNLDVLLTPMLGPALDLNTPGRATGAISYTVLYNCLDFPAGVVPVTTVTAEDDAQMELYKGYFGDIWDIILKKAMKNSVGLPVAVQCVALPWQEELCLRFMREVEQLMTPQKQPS
reported-property: pIC50
The scale used: pIC50 is minus the common logarithm of the concentration in molar units.

COc1ccc(Oc2cccc(CN3CCN(C(=O)Nc4ccccc4)CC3)c2)cc1 = 6.88
O=C(Nc1ccccc1)N1CCN(Cc2ccc(C(F)(F)F)cc2)CC1 = 6.59
O=C(Nc1ccccc1)N1CCN(Cc2cccc(C(F)(F)F)c2)CC1 = 6.08
N#Cc1ccc(CN2CCN(C(=O)Nc3ccccc3)CC2)cc1 = 5.12
O=C(Nc1ccccc1)N1CCN(Cc2ccc(Cl)cc2)CC1 = 5.57

Lab note: Cc1ccc(Oc2cccc(CN3CCN(C(=O)Nc4ccccc4)CC3)c2)cc1 gave pIC50 of 6.19

Lab note: O=C(Nc1ccncn1)N1CCN(Cc2cccc(Oc3ccc(Cl)cc3)c2)CC1 gave pIC50 of 5.82

Lab note: CC(C)(C)c1ccc(Oc2cccc(CN3CCN(C(=O)Nc4ccccc4)CC3)c2)cc1 gave pIC50 of 7.12

Lab note: O=C(Nc1ccccc1)N1CCN(Cc2ccc(Oc3ccc(Cl)cc3)cc2)CC1 gave pIC50 of 5.40

Lab note: O=C(Nc1ccccc1)N1CCN(Cc2cccc(Cl)c2)CC1 gave pIC50 of 5.25

Each recorded value in this set is attributed to ChEMBL document CHEMBL2163210.
